- assay.system: T1, human MCAM (melanoma cell adhesion molecule) expressed on transfected CHO cells (human, UniProt P43121 24-646)
- T1 construct: also called hMCAM; CD146
- T1 chain: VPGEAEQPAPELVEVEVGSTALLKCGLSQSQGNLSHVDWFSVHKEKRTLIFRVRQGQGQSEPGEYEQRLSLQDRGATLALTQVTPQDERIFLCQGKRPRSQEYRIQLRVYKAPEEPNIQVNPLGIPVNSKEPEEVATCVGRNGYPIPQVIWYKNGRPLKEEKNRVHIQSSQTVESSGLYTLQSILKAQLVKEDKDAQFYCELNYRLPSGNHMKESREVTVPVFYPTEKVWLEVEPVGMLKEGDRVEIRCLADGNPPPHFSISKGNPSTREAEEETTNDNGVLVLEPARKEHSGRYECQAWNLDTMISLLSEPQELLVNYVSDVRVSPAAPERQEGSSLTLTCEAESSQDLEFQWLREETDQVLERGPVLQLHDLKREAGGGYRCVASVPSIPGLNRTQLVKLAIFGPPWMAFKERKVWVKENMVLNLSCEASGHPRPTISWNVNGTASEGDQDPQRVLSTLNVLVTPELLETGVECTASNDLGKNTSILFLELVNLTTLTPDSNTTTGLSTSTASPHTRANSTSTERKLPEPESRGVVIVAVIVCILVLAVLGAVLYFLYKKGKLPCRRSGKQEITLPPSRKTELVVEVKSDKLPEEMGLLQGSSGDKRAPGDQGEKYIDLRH
- method.notes: laminin/FACS on hMCAM CHO cells, competitor laminin 411; Expt#2; vs rodent 1749
measurement.label: fold over rodent (blocking, laminin/FACS) (fold)
Reply numerically in fold, unit not repeated.

Reported fold over rodent (blocking, laminin/FACS) for h1749VH2 + h1749VL1 (antibody, human IgG1, V domains shown, also called h1749VH2VL1) VH: EVQLVESGGGLVQPGGSLRLSCAASGFTFSSYIMSWVRQAPGKRLEWVATISSGGSSTYYPDSVKGRFTISRDNAKNSLYLQMNSLRAEDTAVYYCTRDDDYDVKVFAYWGQGTMVTVSS VL: DIVMTQSPDSLAVSLGERATINCKSSRSLLNSRIRKNYLAWYQQKPGQPPKLLIYWASTRESGVPDRFSGSGSGTDFTLTISSLQAEDVAVYYCKQSYNLLTFGQGTKVEIK : what is it?
1.8

Item: h1749VH2 + h1749VL2 (antibody, human IgG1, V domains shown, also called humanized 1749 conservative VH and VL) VH: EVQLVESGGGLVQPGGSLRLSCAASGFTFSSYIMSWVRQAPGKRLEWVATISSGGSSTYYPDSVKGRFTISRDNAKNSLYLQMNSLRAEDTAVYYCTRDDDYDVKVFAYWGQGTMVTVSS VL: DIVMTQSPDSLAVSLGERATINCKSSRSLLNSRIRKNYLAWYQQKPGQPPKLLIYWASTRESGVPDRFTGSGSGTDFTLTISSLQAEDVAVYYCKQSYNLLTFGQGTKVEIK
1.7
